# Measured on: Bile acid receptor (Homo sapiens) (UniProt Q96RI1)
# Sequence (Q96RI1 whole entry, looked up): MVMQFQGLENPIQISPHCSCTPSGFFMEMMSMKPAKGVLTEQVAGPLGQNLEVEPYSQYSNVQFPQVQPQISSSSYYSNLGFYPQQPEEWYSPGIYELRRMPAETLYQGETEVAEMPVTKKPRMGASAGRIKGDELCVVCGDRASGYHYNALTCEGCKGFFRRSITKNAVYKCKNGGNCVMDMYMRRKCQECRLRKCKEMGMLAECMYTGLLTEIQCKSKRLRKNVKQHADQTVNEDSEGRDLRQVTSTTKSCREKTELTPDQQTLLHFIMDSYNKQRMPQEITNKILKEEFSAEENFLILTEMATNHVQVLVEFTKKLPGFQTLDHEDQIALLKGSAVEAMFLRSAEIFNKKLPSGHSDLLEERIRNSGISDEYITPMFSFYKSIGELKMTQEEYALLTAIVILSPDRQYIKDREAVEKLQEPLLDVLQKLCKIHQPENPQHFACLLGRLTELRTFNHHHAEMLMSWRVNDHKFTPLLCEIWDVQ
# Measurement protocol: qHTS assay to identify small molecule agonists of the farnesoid-X-receptor (FXR) signaling pathway (AID 743220)
# Condition info: HEK293T FXR-UAS-bla, beta-lactamase FRET ratio, 16 h; series mostly up to 62.6 µM
Inconclusive results are not listed. The source made the active and inactive calls. Calls follow the shape of the dose curve; as a rule, active = well fitted activation curve with a large enough effect in the signal ratio in the repeat runs (not every such curve was filed as active); inconclusive = weak or mixed curves, or effect the other way; inactive = flat fitted curve, though single readings scatter; the % refers to the signal ratio.
Measured quantity: outcome

Molecule	Measured
C[C@H](N)C(=O)c1ccccc1	inactive
CCC(C(N)=O)N1CCCC1=O (centres undefined)	inactive
CC[C@@H](CO)NC(=O)[C@@H]1C=C2c3cccc4c3c(cn4C)C[C@H]2N(C)C1	inactive
CC[C@H](O)C(C[C@H](C)N(C)C)(c1ccccc1)c1ccccc1	inactive

----------
# Measurement protocol: qHTS assay to test for compound auto fluorescence at 535 nm (green) in HepG2 cells (AID 720675)
# Condition info: green autofluorescence 485/535 nm, 1 h; series mostly up to 91.3 µM
# Text: National Center for Advancing Translational Sciences [NCATS] NIH Chemical Genomics Center [NCGC] U.S. Environmental Protection Agency [EPA] National Institutes of Environmental Health Sciences [NIEHS] National Toxicology Program [NTP] U.S. Food and Drug Administration [FDA] Compound auto fluorescence often interferes with screening of the compound library against various biological targets and signaling pathways. Some of these compounds may have fluorophoric properties. […]
Active and inactive are the calls of the source. Calls come from the whole dose curve; as a rule, active = well fitted curve in the direction sought with a large enough effect in the repeat runs; inconclusive = weak or mixed curves; inactive = flat fitted curve, though single readings scatter.
Measured quantity: fluorescence, % of fluorescein control

Below are worked cases with known answers.
Compound	fluorescence, % of fluorescein control
CCN[C@@H](C)Cc1ccccc1	inactive
CCN[C@H](C)Cc1cccc(C(F)(F)F)c1	inactive
OCC(Cl)CCl (stereo unspecified)	inactive
CCC(=O)c1ccc(Cl)cc1	inactive
CCOC(=O)COc1ccc(Cl)cc1Cl	inactive

Q: Param item = CCC1(c2ccccc2)CCC(=O)NC1=O (stereo unspecified) ; retrieve measured fluorescence, % of fluorescein control.
A: inactive

Q: Next compound up: C=CC1(C)OC(=O)N(c2cc(Cl)cc(Cl)c2)C1=O (stereo unspecified)
A: inactive

Q: Same again, this time with C=CCCC#N
A: inactive

Q: Repeat for the following compound: CCC(C)(C#N)N=NC(C)(C#N)CC (stereo unspecified)
A: inactive

Q: Next entry: c1ccc2c(c1)CCNC2
A: inactive

Q: What about CCOC(=O)CCl ?
A: inactive

Q: Note, next up: ClCCCCl
A: inactive

Q: Also, CC(Cl)(Cl)Cl please.
A: inactive

Q: Query CNC(=O)O/N=C(/CSC)C(C)(C)C next
A: inactive

Q: Also need Cl/C=C/CCl , thanks.
A: inactive

Q: Lookup C=CCN1CC[C@]23CCCC[C@H]2[C@H]1Cc1ccc(O)cc13
A: inactive

----------
# Measured on: Acetylcholinesterase (Homo sapiens)
# Measurement protocol: Acetylcholinesterase (AChE) small molecule antagonists: fluorescence cell-based qHTS assay (AID 1347398); also: nearly all actives have a fitted effect of over 50% in size
# Condition info: SH-SY5Y cells; AChE activity; series mostly up to 115 µM
Inconclusive results are not listed. Activity calls are given as the source filed them. The call rests on the fitted dose curve.
Write down the outcome that applies. Available outcomes: True (active), False (inactive)

Check out these entries, answers already filled in.
Compound	Group label
C=C(C)[C@H]1CN[C@H](C(=O)O)[C@H]1CC(=O)O	False
CCN(CC)CCOC(=O)C(O)(c1ccccc1)c1ccccc1	False
COc1cccc([C@@]2(O)CCCC[C@@H]2CN(C)C)c1	False
CCN[C@@H](C)Cc1cccc(C(F)(F)F)c1	False
CNC(=O)Oc1cc(C)c(N(C)C)c(C)c1	True

Q: Per the assay record, what outcome was assigned to CC(C)NCC(O)c1ccc([N+](=O)[O-])cc1 (stereo unspecified) ?
A: False

Cited source: PubChem BioAssay (Tox21)
